- measured on: wild-type human cardiac sodium channel, hNav1.5 (late sodium current) (Homo sapiens)
- Construct: host or cells: HEK293
- procedure details: Late INa screening assay (PatchXpress whole cell patch clamp)
- Type: cell-based
- measurement parameters: 10 μM test compound; HEK293 hNav1.5; late INa generated with 10 μM Tefluthrin (some experiments 50 nM ATX II); read-out: Late INa % blk (10 μM test cmpd)
inhibition at 10 µM vs 40%: at or above is T, below is F.

Known results for compounds:
[[record]]
structure_notation = "CS(=O)(=O)N(CC(=O)O)c1ccc(-c2cccc(OC(F)(F)F)c2)c(F)c1"
class = "F"

[[record]]
structure_notation = "Cc1cc(N(Cc2cccc(C(=O)O)c2)S(C)(=O)=O)ccc1-c1ccc(Oc2ccccc2)cc1"
class = "F"

[[record]]
structure_notation = "Cc1cc(-c2ccc(Oc3ccccc3)cc2)c(Cl)cc1N(CC(=O)O)S(C)(=O)=O"
class = "T"

[[record]]
structure_notation = "COCCN(c1ccc(-c2ccc(Cl)c(F)c2)c(Cl)c1)S(C)(=O)=O"
class = "F"

[[record]]
structure_notation = "CS(=O)(=O)Nc1ccc(-c2ccc(Oc3ccccc3)cc2)cc1C(=O)O"
class = "F"

[[record]]
structure_notation = "CS(=O)(=O)Nc1ccc(-c2ccc(C(F)(F)F)cc2)cc1"
class = "F"

[[record]]
structure_notation = "CS(=O)(=O)Nc1ccc(-c2cc(F)c(F)c(F)c2)c(Cl)c1"
class = "T"


Shift focus to the following entry.
Ask: Is it the case that CS(=O)(=O)Nc1ccc(-c2ccc(C(F)(F)F)cc2)c(F)c1 has inhibition at 10 µM reaching or exceeding 40%?
Reply: T

----------
- measured on: wild-type human cardiac sodium channel, hNav1.5 (late sodium current) (Homo sapiens, UniProt Q14524)
- Construct: host or cells: HEK293
- Sequence (Q14524 whole entry): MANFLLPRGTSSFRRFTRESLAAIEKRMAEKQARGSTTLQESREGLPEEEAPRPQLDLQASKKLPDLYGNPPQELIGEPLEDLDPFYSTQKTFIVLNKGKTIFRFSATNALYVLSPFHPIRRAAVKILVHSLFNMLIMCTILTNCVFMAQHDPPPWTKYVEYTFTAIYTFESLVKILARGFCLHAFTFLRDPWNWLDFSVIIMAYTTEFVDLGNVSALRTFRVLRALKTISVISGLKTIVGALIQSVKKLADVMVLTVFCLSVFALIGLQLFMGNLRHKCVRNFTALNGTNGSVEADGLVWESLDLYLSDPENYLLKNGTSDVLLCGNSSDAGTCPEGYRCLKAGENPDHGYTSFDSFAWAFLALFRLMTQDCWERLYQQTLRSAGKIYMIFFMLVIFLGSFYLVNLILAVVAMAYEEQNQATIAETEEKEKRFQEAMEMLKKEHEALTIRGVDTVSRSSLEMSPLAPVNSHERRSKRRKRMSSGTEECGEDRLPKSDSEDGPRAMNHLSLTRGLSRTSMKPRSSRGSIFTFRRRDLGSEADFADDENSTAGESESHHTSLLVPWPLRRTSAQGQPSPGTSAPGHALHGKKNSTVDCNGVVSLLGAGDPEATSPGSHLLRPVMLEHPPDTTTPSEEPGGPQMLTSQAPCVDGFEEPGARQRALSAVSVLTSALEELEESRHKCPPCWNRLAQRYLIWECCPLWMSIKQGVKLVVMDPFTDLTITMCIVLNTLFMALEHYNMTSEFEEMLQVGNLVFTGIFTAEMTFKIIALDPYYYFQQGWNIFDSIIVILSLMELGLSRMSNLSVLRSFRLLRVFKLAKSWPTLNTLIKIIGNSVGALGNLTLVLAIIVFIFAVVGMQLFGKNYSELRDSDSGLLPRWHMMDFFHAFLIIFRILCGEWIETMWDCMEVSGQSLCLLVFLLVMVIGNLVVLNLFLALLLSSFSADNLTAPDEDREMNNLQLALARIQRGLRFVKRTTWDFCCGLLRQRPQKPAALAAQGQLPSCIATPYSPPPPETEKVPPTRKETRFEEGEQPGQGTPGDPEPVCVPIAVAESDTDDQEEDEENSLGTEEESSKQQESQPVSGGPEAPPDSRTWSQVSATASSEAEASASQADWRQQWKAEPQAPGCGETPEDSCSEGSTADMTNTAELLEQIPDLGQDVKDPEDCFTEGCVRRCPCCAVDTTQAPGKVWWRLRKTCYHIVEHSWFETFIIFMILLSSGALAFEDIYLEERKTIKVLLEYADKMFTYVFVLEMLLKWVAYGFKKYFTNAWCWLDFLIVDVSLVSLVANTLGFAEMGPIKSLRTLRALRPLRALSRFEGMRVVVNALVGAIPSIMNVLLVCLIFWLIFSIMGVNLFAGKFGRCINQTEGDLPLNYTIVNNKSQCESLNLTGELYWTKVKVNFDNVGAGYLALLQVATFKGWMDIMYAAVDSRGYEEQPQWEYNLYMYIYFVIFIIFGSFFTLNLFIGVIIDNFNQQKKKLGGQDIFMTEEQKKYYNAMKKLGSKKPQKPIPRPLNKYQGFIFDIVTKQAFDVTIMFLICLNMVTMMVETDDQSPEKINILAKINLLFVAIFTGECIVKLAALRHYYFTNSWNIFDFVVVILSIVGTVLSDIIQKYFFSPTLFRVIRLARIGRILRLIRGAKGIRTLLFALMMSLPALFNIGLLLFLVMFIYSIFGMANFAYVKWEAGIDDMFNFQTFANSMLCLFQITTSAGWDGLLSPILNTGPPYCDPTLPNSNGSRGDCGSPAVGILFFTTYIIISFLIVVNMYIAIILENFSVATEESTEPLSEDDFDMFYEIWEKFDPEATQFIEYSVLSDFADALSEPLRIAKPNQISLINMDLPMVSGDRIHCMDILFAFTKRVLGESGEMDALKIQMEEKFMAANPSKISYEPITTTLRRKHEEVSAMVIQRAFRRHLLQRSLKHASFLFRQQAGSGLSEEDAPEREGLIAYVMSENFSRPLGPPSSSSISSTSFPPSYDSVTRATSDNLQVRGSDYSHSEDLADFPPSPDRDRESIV
- procedure details: Late INa screening assay (PatchXpress whole cell patch clamp)
- Type: cell-based
- measurement parameters: 10 μM test compound; HEK293 hNav1.5; late INa generated with 10 μM Tefluthrin (some experiments 50 nM ATX II); read-out: Late INa % blk (10 μM test cmpd)
inhibition at 10 µM vs 50%: at or above is True, below is False.

Known results for molecules:
[[record]]
molecule = "CS(=O)(=O)Nc1ccc(-c2ccc(Cl)cc2)c(Cl)c1 [PT-043]"
class = "True"

[[record]]
molecule = "CS(=O)(=O)Nc1ccc(-c2ccc(Cl)c(F)c2)cc1OC(F)(F)F [PT-074]"
class = "False"

[[record]]
molecule = "CS(=O)(=O)Nc1ccc(-c2ccc(Oc3ccccc3)cc2)c(N)c1 [PT-163]"
class = "True"

[[record]]
molecule = "CS(=O)(=O)Nc1ccc(-c2ccc(F)c(F)c2)c(Cl)c1 [PT-023]"
class = "False"

[[record]]
molecule = "Cc1cc(-c2ccc(Oc3ccccc3)cc2)c(Cl)cc1NS(C)(=O)=O [PT-041]"
class = "True"


Shift focus to the following entry.
Ask: Is it the case that Cc1cc(N(Cc2ccc(C(=O)O)cc2)S(C)(=O)=O)ccc1-c1ccc(Oc2ccccc2)c(F)c1 [PT-141] has inhibition at 10 µM reaching or exceeding 50%?
Reply: False

----------
- measured on: wild-type human cardiac sodium channel, hNav1.5 (late sodium current) (Homo sapiens)
- Construct: host or cells: HEK293
- procedure details: Late INa screening assay (PatchXpress whole cell patch clamp)
- Type: cell-based
- measurement parameters: 10 μM test compound; HEK293 hNav1.5; late INa generated with 10 μM Tefluthrin (some experiments 50 nM ATX II); read-out: Late INa % blk (10 μM test cmpd)
- Procedure: The late sodium current (Late INa) and peak sodium current (Peak INa) assays are performed on an automated electrophysiology platform, PatchXpress 7000A (MDS Analytical Technologies, Sunnyvale, Calif.), which uses the whole cell patch clamp technique to measure currents through the cell membrane of up to 16 cells at a time. […]
inhibition at 10 µM vs 30%: at or above is label 1, below is label 0.

[[record]]
structure_notation = "CS(=O)(=O)Nc1ccc(-c2ccc(OC(F)(F)F)cc2)c(Cl)c1"
class = "label 0"


Ask: Is it the case that CS(=O)(=O)Nc1ccc(-c2cccc(OC(F)(F)F)c2)cc1 has inhibition at 10 µM reaching or exceeding 30%?
Reply: label 1

Ask: Is it the case that CS(=O)(=O)Nc1ccc(-c2ccc(F)c(Cl)c2)cc1Cl has inhibition at 10 µM reaching or exceeding 30%?
Reply: label 1

Ask: Is it the case that Cc1cc(-c2ccc(Oc3ccccc3)cc2)ccc1NS(C)(=O)=O has inhibition at 10 µM reaching or exceeding 30%?
Reply: label 0

Ask: Is it the case that Cc1cc(-c2ccc(Oc3ccccc3)cc2)c(F)cc1N(Cc1ccc(C(=O)O)cc1)S(C)(=O)=O has inhibition at 10 µM reaching or exceeding 30%?
Reply: label 0
